- method: Protein binding in human plasma assessed as unbound fraction
- Assay type: ADME, cell-free
propertyName: Fu (%)
Report the figure in % without appending any unit label.

Worked set:
INSERT INTO results (compoundstructurestring, readoutnumber) VALUES
  ('COc1ccc(CN2CCC[C@H](OCc3ccc(F)c(F)c3)C2)cc1F', 1.1),
  ('FC(F)(F)c1cccc(COC2CCN(Cc3cc4ccc(Cl)cc4[nH]3)CC2)c1', 0.1),
  ('Fc1ccc(COC2CCN(Cc3ccc4[nH]cnc4c3)CC2)cc1F', 22.9),
  ('Fc1cc(COC2CCN(Cc3cn4ccccc4n3)CC2)ccc1Cl', 1.8),
  ('Cn1cnc2cc(CN3CCC(OCc4cccc(C(F)(F)F)c4)CC3)ccc21', 1);

Query: Can you look up the measured Fu of Cn1ncc2cc(CN3CCC(OCc4ccc(F)c(F)c4)CC3)ccc21 for me?
Result: 3.6

Query: Can you look up the measured Fu of Fc1ccc(COC2CCN(Cc3cn4ccccc4n3)CC2)cc1F for me?
Result: 6.2

Query: Can you look up the measured Fu of Fc1cc(COC2CCN(Cc3ncc4ccccn34)CC2)ccc1Cl for me?
Result: 1

Query: Can you look up the measured Fu of Cc1c(Cl)cccc1NC(=O)CN1CCC(OCc2ccc(F)c(F)c2)CC1 for me?
Result: 0.3

Query: Can you look up the measured Fu of FC(F)(F)c1cccc(COC2CCN(Cc3ccc4[nH]cnc4c3)CC2)c1 for me?
Result: 2.5

Query: Can you look up the measured Fu of Cc1cc(NC(=O)CN2CCC(OCc3ccc(F)c(F)c3)CC2)ccc1F for me?
Result: 0.5

Query: Can you look up the measured Fu of Cn1ncc2cc(CN3CCC(OCc4ccc(Cl)c(F)c4)CC3)ccc21 for me?
Result: 0.9

Query: Can you look up the measured Fu of Fc1cc(COC2CCN(Cc3ccc4[nH]cnc4c3)CC2)ccc1Cl for me?
Result: 7.7

Query: Can you look up the measured Fu of FC(F)(F)c1cccc(COC2CCN(Cc3cn4ccccc4n3)CC2)c1 for me?
Result: 1.8

Query: Can you look up the measured Fu of Cn1ncc2cc(CN3CCC(OCc4cccc(C(F)(F)F)c4)CC3)ccc21 for me?
Result: 1

Query: Can you look up the measured Fu of Fc1ccc(CO[C@H]2CCCN(Cc3cn4ccccc4n3)C2)cc1F for me?
Result: 0.2

Query: Can you look up the measured Fu of Fc1cccc(COC2CCN(Cc3cn4ccccc4n3)CC2)c1 for me?
Result: 7

Query: Can you look up the measured Fu of Cc1nc(CN2CCC(OCc3ccc(Cl)c(F)c3)CC2)c2ccccn12 for me?
Result: 7.1

Query: Can you look up the measured Fu of Cc1nc(CN2CCC(OCc3cccc(C(F)(F)F)c3)CC2)c2ccccn12 for me?
Result: 5.2

Query: Can you look up the measured Fu of Fc1cccc(COC2CCN(Cc3ncn4ccccc34)CC2)c1 for me?
Result: 2.3

Query: Can you look up the measured Fu of Fc1ccc(CO[C@H]2CCCN(Cc3ncn4ccccc34)C2)cc1F for me?
Result: 3.9

---

Each entry below lists one item and its recorded log10 Ki value.
- targetOfAssay: D(4) dopamine receptor (Homo sapiens)
- Sequence (P21917 whole entry): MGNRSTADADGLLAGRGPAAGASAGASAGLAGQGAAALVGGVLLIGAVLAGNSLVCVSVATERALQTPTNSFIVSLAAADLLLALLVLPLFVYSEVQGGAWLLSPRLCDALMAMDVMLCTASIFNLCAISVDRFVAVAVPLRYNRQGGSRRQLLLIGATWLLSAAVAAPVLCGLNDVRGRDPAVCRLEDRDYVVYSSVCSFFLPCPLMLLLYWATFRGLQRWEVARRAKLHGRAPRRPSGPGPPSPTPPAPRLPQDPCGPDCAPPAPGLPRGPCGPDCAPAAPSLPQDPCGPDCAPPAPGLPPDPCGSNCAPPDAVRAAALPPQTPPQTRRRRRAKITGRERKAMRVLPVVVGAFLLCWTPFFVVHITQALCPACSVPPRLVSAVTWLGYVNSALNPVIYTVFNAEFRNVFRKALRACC
Recorded Ki (log10, nM)

Worked set:
INSERT INTO assay_data (compoundstructurestring, targetofassay, propertyname, readoutnumber) VALUES
  ('FC(F)(F)c1cccc(COC2CCN(Cc3ccc4[nH]ncc4c3)CC2)c1', 'D(4) dopamine receptor (Homo sapiens)', 'log10 Ki', 2.93),
  ('Cc1ccc(CO[C@H]2CCCN(Cc3ccc(C#N)cc3)C2)cc1', 'D(4) dopamine receptor (Homo sapiens)', 'log10 Ki', 3.00),
  ('COc1ccc(CN2CCO[C@H](COc3ccccc3)C2)cc1F', 'D(4) dopamine receptor (Homo sapiens)', 'log10 Ki', 0.76),
  ('Cc1nc(CN2CCC(OCc3cccc(C(F)(F)F)c3)CC2)c2ccccn12', 'D(4) dopamine receptor (Homo sapiens)', 'log10 Ki', 2.49),
  ('Cc1c(Cl)cccc1NC(=O)CN1CCC(OCc2ccc(F)c(F)c2)CC1', 'D(4) dopamine receptor (Homo sapiens)', 'log10 Ki', 2.48),
  ('Cn1ncc2cc(CN3CCC(OCc4ccc(F)c(F)c4)CC3)ccc21', 'D(4) dopamine receptor (Homo sapiens)', 'log10 Ki', 2.44),
  ('Cn1ncc2cc(CN3CCC(OCc4ccc(Cl)c(F)c4)CC3)ccc21', 'D(4) dopamine receptor (Homo sapiens)', 'log10 Ki', 2.23);

// moving on: another record for log10 Ki
Query: Write down the reported log10 Ki of Cn1ncc2cc(CN3CCC(OCc4cccc(C(F)(F)F)c4)CC3)ccc21 , test system: D(4) dopamine receptor (Homo sapiens).
Result: 2.30
